# MEASURED TARGET: human α2C receptor (Homo sapiens)
# Construct: expressed in transfected cells; host or cells: CHO cells, also recombinantly expressing chimeric G protein Gαqi3 and mitochondrial obelin (mtOb)
# Sequence (P18825 1-462): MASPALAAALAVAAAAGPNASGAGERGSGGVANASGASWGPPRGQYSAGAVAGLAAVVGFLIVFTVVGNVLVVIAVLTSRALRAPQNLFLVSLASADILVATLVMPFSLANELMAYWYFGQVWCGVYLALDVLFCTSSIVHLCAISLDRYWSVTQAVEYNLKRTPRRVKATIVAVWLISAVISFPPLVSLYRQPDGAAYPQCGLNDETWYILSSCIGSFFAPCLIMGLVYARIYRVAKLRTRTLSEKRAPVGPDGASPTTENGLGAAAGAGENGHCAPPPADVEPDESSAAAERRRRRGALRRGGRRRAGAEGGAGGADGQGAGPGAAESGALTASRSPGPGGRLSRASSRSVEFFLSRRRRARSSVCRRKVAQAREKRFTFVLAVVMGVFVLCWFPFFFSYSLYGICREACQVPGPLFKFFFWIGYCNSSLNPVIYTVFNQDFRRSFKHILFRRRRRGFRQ
# METHOD: Antagonism against the adrenoreceptor α2C (luminescence, recombinant CHO cell line)
# Assay type: cell-based
# CONDITION DETAILS: antagonism against adrenoreceptor α2C; noradrenaline 20 nM; tested up to 10 μM; read-out: IC50
Where a name gives a salt, the structure may show the parent alone.
So I've got a bunch of compounds here, and I need their IC50 values.
Give bare numbers, in nM.

Sample records with IC50:
CC1CCCN(C2CCN(C(=O)c3ccc(C4(CO)CC4)cc3)CC2)C1 (stereo not shown) [Example 31, trifluoroacetic acid salt]; 403
C[C@@H]1CCCN(C2CCN(C(=O)c3ccc(C(=O)NCc4ncc(Cl)cc4C(F)(F)F)cc3)CC2)C1; 13
CC(NC(=O)c1ccc(C(=O)N2CCC(N3CCC[C@@H](C)C3)CC2)cc1)c1c(F)cccc1F (stereo partly shown) [Example 87, trifluoroacetic acid salt]; 16

I have 2 compounds here; please give me IC50 for each one.
1. CC(C)(O)c1ccc(C(=O)N2CCC(N3CCCC(OC4CC4)C3)CC2)cc1 (stereo not shown) [Example 112, formic acid salt]
2. CC1CCCN(C2CCN(C(=O)c3ccc(C(=O)NC(C)C(C)C)cc3)CC2)C1 (stereo not shown)

Marked response:
[358, 150]

I have 2 compounds here; please give me IC50 for each one.
1. CC(c1ccccc1)N(C)C(=O)c1ccc(C(=O)N2CCC(N3CCC[C@@H](C)C3)CC2)cc1 (stereo partly shown)
2. C[C@@H]1CCCN(C2CCN(C(=O)c3ccc(C(C)(C)O)c(Cl)c3)CC2)C1

Marked response:
39
84

---

# MEASURED TARGET: human α2C receptor (Homo sapiens)
# Construct: expressed in transfected cells; host or cells: CHO cells, also recombinantly expressing chimeric G protein Gαqi3 and mitochondrial obelin (mtOb)
# METHOD: Antagonism against the adrenoreceptor α2C (luminescence, recombinant CHO cell line)
# Assay type: cell-based
# CONDITION DETAILS: antagonism against adrenoreceptor α2C; noradrenaline 20 nM; tested up to 10 μM; read-out: IC50
Where a name gives a salt, the structure may show the parent alone.
QUANTITY MEASURED: IC50
Report field: quantity (unit follows the number).

CC1CCCN(C2CCN(C(=O)c3ccc(C(=O)NCc4cccc(OC(F)(F)F)c4)cc3)CC2)C1 (stereo not shown) [Example 70, trifluoroacetic acid salt]; 190 nM
CCOC(=O)C1CCCN(C2CCN(C(=O)c3ccc(CC4(C)COC4)cc3)CC2)C1 (stereo not shown) [Example 24]; 17 nM
CC(C)(O)c1ccc(C(=O)N2CCC(N3CCCC(c4nnc(C5CC5)[nH]4)C3)CC2)cc1 (stereo not shown) [Example 60]; 45 nM

Turning now to a further record.
get_value(item= CCC1CCCN(C2CCN(C(=O)c3ccc(C(C)(C)O)cc3)CC2)C1 (single isomer, unassigned; enantiomer 1) [Example 115] , readout=IC50) returns 22 nM
